# measurement.description: qHTS assay to identify small molecule agonists of the androgen receptor (AR) signaling pathway in the presence of an antagonist - cell viability counter screen (AID 1259379);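 also: MDA-kb2 human breast cancer cells carrying an MMTV luciferase reporter; nearly all actives have a fitted effect of over 25% in size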
# measurement.context: MDA-kb2 viability, CellTiter-Fluor, 16 h; series mostly up to 92.4 µM
Inconclusive results are not listed. Calls of active or inactive are those of the source. Calls follow the shape of the dose curve; as a rule, active = well fitted cell-killing curve with a large enough effect in the repeat runs; inconclusive = weak or mixed curves, or effect the other way; inactive = flat fitted curve, though single readings scatter.
Respond with a class label; see active, inactive

Query string: I would be grateful if you could indicate the recorded call for "COC(=O)CC(=O)OC" .
Result string: inactive

Query string: Entry "CC1(C)O[C@@H]2C[C@H]3[C@@H]4C[C@H](F)C5=CC(=O)C=C[C@]5(C)[C@@]4(F)[C@@H](O)C[C@]3(C)[C@]2(C(=O)CO)O1" : call = ?
Result string: inactive

Query string: GET /call?item= "C=C1C[C@H]2[C@@H]3C=C(C)C4=CC(=O)CC[C@]4(C)[C@H]3CC[C@]2(C)[C@@]1(OC(C)=O)C(C)=O" returns the recorded outcome of this test.
Result string: inactive

Query string: Recorded test call requested for "OCCNCCO"
Result string: inactive

Query string: I would be grateful if you could indicate the recorded call for "CNC[C@H](O)c1ccc(O)c(O)c1" .
Result string: inactive

Query string: Tell me the assay call for "CCCCCCCCCCCCO" please.
Result string: inactive

Query string: Dear all, I need the recorded test outcome for "COc1ccc2nc(N)sc2c1" , thank you.
Result string: inactive

Query string: What is the recorded call for this compound in the test? "Cc1ccc(C(C)(C)C)cc1"
Result string: inactive
